tgt: PCSK9 (Homo sapiens (Human), UniProt Q8NBP7)
Sequence (Q8NBP7 153-692): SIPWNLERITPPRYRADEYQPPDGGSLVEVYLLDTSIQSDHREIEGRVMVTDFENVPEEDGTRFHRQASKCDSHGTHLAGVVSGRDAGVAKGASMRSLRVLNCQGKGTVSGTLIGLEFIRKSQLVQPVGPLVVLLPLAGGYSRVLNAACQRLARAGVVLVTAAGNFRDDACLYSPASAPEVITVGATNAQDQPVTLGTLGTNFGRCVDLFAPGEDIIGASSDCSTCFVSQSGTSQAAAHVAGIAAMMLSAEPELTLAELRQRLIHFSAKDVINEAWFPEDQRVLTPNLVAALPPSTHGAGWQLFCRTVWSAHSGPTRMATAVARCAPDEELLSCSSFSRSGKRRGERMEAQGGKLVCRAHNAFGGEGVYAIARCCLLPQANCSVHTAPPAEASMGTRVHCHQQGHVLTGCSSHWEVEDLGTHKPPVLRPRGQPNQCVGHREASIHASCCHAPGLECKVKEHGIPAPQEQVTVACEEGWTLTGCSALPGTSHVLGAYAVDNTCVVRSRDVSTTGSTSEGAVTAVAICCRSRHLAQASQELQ
protocol details: PCSK9 Alexa FRET Standard assay (displacement of AlexaFluor647 tagged cyclic peptide Reagent A)
Assay type: binding
experimental parameters: PCSK9 Alexa FRET Standard assay, 0.5 nM PCSK9, 20 nM AF cyclic peptide Reagent A; read-out: IC50
Starred links: 1 amine or outer side, 2 acyl side, 3 side chain; linkers in the order of their positions; H or OH if unused. Positions of bridges follow the written chain, without caps; N, C: chain ends. Non-standard residues stand in square brackets, D forms with d. Residues, ends and D or L forms follow the SMILES beside them. *: point of attachment. Pyridine(2,6-diCH2) = c1cc(C[*:1])nc(C[*:2])c1; Trp(5-F) = N[C@@H](Cc1c[nH]c2ccc(F)cc12)C(=O)O; X45 = O=C(CCC(=O)[*:1])NCc1ccc(CCN[*:2])cc1; mXylylene(5-F) = Fc1cc(C[*:1])cc(C[*:2])c1; Pro(cis-4-F) = O=C(O)[C@@H]1C[C@H](F)CN1; mXylylene = c1cc(C[*:1])cc(C[*:2])c1; AEF = NCCOc1ccc(C[C@H](N)C(=O)O)cc1; aThr = C[C@H](O)[C@H](N)C(=O)O; αMeP = C[C@@]1(C(=O)O)CCCN1; dDab = NCC[C@@H](N)C(=O)O; X28 = CC(C)(F)C(=O)*; Mpa = O=C(O)CCS
reported endpoint: IC50

// known answers, use as guide
COc1ccc(C[C@@H]2NC(=O)[C@H]([C@@H](C)O)NC(=O)[C@@H]3CCCN3C(=O)[C@H](Cc3c[nH]c4ccc(F)cc34)NC(=O)[C@H](Cc3c[nH]c4ccc(F)cc34)NC(=O)[C@@H](C)NC(=O)[C@H](CCCCN)NC(=O)CCSCc3cccc(n3)CSC[C@@H](C(N)=O)NC(=O)[C@]3(C)CCCN3C2=O)cc1 [Compound 065] ([Mpa]K[dA][Trp(5-F)][Trp(5-F)]PTY(Me)[αMeP]C-NH2; linker 1-10 via Pyridine(2,6-diCH2)); 100 to 1000 nM
COc1ccc(C[C@@H]2NC(=O)[C@H]([C@@H](C)O)NC(=O)[C@@H]3C[C@H](F)CN3C(=O)[C@H](Cc3c[nH]c4ccc(F)cc34)NC(=O)[C@H](Cc3c[nH]c4ccc(F)cc34)NC(=O)[C@@H](C)NC(=O)[C@H](NC(C)=O)CCC(=O)NCCOc3ccc(cc3)C[C@@H](C(N)=O)NC(=O)[C@]3(C)CCCN3C2=O)cc1 [Compound 056] (Ac-[dE][dA][Trp(5-F)][Trp(5-F)][Pro(cis-4-F)]TY(Me)[αMeP][AEF]-NH2; lactam 1-9); 21000 to 50000 nM
C[C@@H](O)[C@@H]1NC(=O)[C@@H]2CCCN2C(=O)[C@H](Cc2c[nH]c3ccc(F)cc23)NC(=O)[C@H](Cc2c[nH]c3ccc(F)cc23)NC(=O)CNC(=O)[C@H](CCCCN)NC(=O)CCSCc2cc(F)cc(c2)CSC[C@@H](C(N)=O)NC(=O)[C@]2(C)CCCN2C(=O)[C@H](Cc2ccc(O)cc2)NC1=O [Compound 043] ([Mpa]KG[Trp(5-F)][Trp(5-F)]PTY[αMeP]C-NH2; linker 1-10 via mXylylene(5-F)); 100 to 1000 nM
CC(=O)N[C@H]1CCc2cn(nn2)-c2ccc(cc2)C[C@@H](C(N)=O)NC(=O)[C@]2(C)CCCN2C(=O)[C@H](Cc2ccc(O)cc2)NC(=O)[C@H](Cc2cnc[nH]2)NC(=O)[C@H](CC(=O)O)NC(=O)[C@H](Cc2c[nH]c3ccc(F)cc23)NC(=O)[C@H](Cc2c[nH]c3ccc(F)cc23)NC(=O)CNC(=O)[C@H](C)NC1=O; 21000 to 50000 nM

Form field IC50, entry CO[C@@H](C)[C@@H]1NC(=O)CCSCc2cccc(c2)CSC[C@@H](C(N)=O)NC(=O)[C@]2(C)CCCN2C(=O)[C@H](Cc2ccc(O)cc2)NC(=O)[C@H](Cc2cnc[nH]2)NC(=O)[C@H](CC(=O)O)NC(=O)[C@H](Cc2c[nH]c3ccc(F)cc23)NC(=O)[C@H](Cc2c[nH]c3ccc(F)cc23)NC(=O)CNC1=O [Compound 377] ([Mpa][aThr](Me)G[Trp(5-F)][Trp(5-F)]DHY[αMeP]C-NH2; linker 1-10 via mXylylene) : 0.11 to 100 nM

In plain terms, C[C@@]12CCCN1C(=O)[C@H](Cc1ccc(O)cc1)NC(=O)[C@H](Cc1cnc[nH]1)NC(=O)[C@H](CC(=O)O)NC(=O)[C@H](Cc1c[nH]c3ccc(F)cc13)NC(=O)[C@H](Cc1c[nH]c3ccc(F)cc13)NC(=O)CNC(=O)[C@@H](CCN)NC(=O)CCSCc1cccc(c1)CSC[C@@H](C(N)=O)NC2=O [Compound 355] ([Mpa][dDab]G[Trp(5-F)][Trp(5-F)]DHY[αMeP]C-NH2; linker 1-10 via mXylylene) has a documented IC50 of 100 to 1000 nM

Field IC50 (entry COc1ccc(C[C@@H]2NC(=O)[C@H]([C@@H](C)O)NC(=O)[C@@H]3C[C@H](F)CN3C(=O)[C@H](Cc3c[nH]c4ccc(F)cc34)NC(=O)[C@H](Cc3c[nH]c4ccc(F)cc34)NC(=O)[C@@H](C)NC(=O)[C@H](CCCCN)NC(=O)[C@@H](NC(=O)C(C)(C)F)CC(=O)NCCOc3ccc(cc3)C[C@@H](C(N)=O)NC(=O)[C@]3(C)CCCN3C2=O)cc1 [Compound 112] (X28-DK[dA][Trp(5-F)][Trp(5-F)][Pro(cis-4-F)]TY(Me)[αMeP][AEF]-NH2; lactam 1-10) ) reads 0.11 to 100 nM

The reported IC50 of the compound COc1ccc(C[C@@H]2NC(=O)[C@H]([C@H](C)O)NC(=O)[C@@H]3C[C@H](F)CN3C(=O)[C@H](Cc3c[nH]c4ccc(F)cc34)NC(=O)[C@H](Cc3c[nH]c4ccc(F)cc34)NC(=O)[C@@H](C)NC(=O)[C@H](CCCCN)NC(=O)CCC(=O)NCc3ccc(cc3)CCNC(=O)[C@]3(C)CCCN3C2=O)cc1 [Compound 111] (K[dA][Trp(5-F)][Trp(5-F)][Pro(cis-4-F)][aThr]Y(Me)[αMeP]; linker N-C via X45) was 0.11 to 100 nM

# IC50 of COc1ccc(C[C@@H]2NC(=O)[C@H]([C@@H](C)O)NC(=O)[C@@H]3CCCN3C(=O)[C@H](Cc3c[nH]c4ccc(F)cc34)NC(=O)[C@H](Cc3c[nH]c4ccc(F)cc34)NC(=O)[C@@H](C)NC(=O)[C@H](CCCCN)NC(=O)CCSCc3cccc(c3)CSC[C@@H](C(N)=O)NC(=O)[C@]3(C)CCCN3C2=O)cc1 [Compound 054] ([Mpa]K[dA][Trp(5-F)][Trp(5-F)]PTY(Me)[αMeP]C-NH2; linker 1-10 via mXylylene) = 100 to 1000 nM
